Assay: PhoP regulon inhibitors, Salmonella typhi PhoP promoter GFP reporter, confirmatory (AID 1850);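 also: 0% = induced wells with vehicle and 100% = uninduced wells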
Details: fluorescence, 4 h, at 50 µM, hits give high values
Among all 310,000 compounds or so, about 1,000 (0.32%) were called active. Not all results are given here. Results with a measured potency or affinity are listed apart.
endpoint_name: inhibition (%)

* O=C1C=C(Nc2ccccc2C(=O)O)c2ccccc2C1=O | 8.73
* Cc1cc(-n2c(=S)sc3c(=O)n(-c4ccc(F)cc4)c(SCC(=O)O)nc32)ccc1Cl | 2.23
* CCC(=O)Nc1c(C#N)c2nc3ccccc3nc2n1C1CCCCC1 | 0.26
* Cc1cc(=O)oc2cc(OCCCC[n+]3ccccc3)ccc12 | -6.05
* N#CCSc1nccc(/C=C/c2ccccc2)n1 | 6.91
* CC(=O)Nc1ccc(OCCC[n+]2cccc(C(=O)[O-])c2)cc1 | 5.76
* Nc1c(S(=O)(=O)c2ccccc2)c2nc3ccccc3nc2n1C1CC1 | 0.22
* COc1ccccc1-c1nc(-c2ccc(Br)cc2)no1 | 19.9
* CC(=O)Nc1ccc(OCCC[n+]2ccccc2)cc1 | -5.56
* CCOC(=O)c1ccc(NC2=CC(=O)C(=O)c3ccccc32)cc1 | 0.12
* N#Cc1ccccc1NC(=O)CSc1nnc(-c2ccccc2)n1-c1ccccc1 | 0.92
* COC(=O)c1cc(S(=O)(=O)N2CCN(c3ccccc3F)CC2)c[nH]1 | -1.3
* CC(C)CN(C(=O)CN(C)C(=O)c1ccco1)c1c(N)n(CC(C)C)c(=O)[nH]c1=O | -1.06
* O=C(Nc1cccc(NC(=O)c2ccc(-c3ccc(Br)cc3)o2)c1)c1ccco1 | 7.16
* CCCCOc1ccc(CCN)cc1Cl | -8.19
* Cc1cccc(OCCNc2cc(N3CCN(C)CC3)ccc2[N+](=O)[O-])c1 | -4.31
* O=C(c1cc(S(=O)(=O)N2CCOCC2)c(Cl)cc1Cl)N1CCCCC1 | -2.41
* CC(C)(C)NCc1cccn1-c1sc2c(c1C#N)CCCC2 | -5.99
* CCC(C)(C)c1ccc(OCCCC[n+]2ccc(C)cc2)c(C(C)(C)CC)c1 | 6.7
* Cc1c(NC(=O)c2nn3c(c2Br)NC(c2ccccc2)CC3C(F)(F)F)c(=O)n(-c2ccccc2)n1C (stereo not drawn) | -3.46
* CCCCn1c(N)c(S(=O)(=O)c2ccc(C)cc2)c2nc3ccccc3nc21 | -6.91
* Cc1ccc(NC2=CC(=O)C(=O)c3ccccc32)cc1 | 5.69
* Oc1[nH]c2ccc(Br)cc2c1N=Nc1ccc(F)cc1 | -81.9

* * *

Below, each of the compounds is paired with its reported inhibition value.
Assay: PhoP regulon inhibitors, Salmonella typhi PhoP promoter GFP reporter, confirmatory (AID 1850);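 also: 0% = induced wells with vehicle and 100% = uninduced wells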
Details: fluorescence, 4 h, at 50 µM, hits give high values
Screen size: about 310,000 compounds; about 1,000 (0.32%) were called active. The list is a sample of the results. Results with a measured potency or affinity are listed apart.
endpoint_name: inhibition (%)

• O=C(c1ccc(Cl)c(NC2=NC3CS(=O)(=O)CC3S2)c1)N1CCN(c2ccccc2)CC1 (stereo unspecified) = -0.27
• CC(=O)C1=C(C)NC(=O)NC1c1ccccc1OCC(=O)NCCc1ccccc1 (stereo unspecified) = 2.94
• CCCc1nc(Cl)c(C#N)c2c1CCCC2 = -3.33
• S=c1[nH]nc(COc2ccc(Cl)cc2)n1-c1ccc(Cl)cc1 = 2.37
• COc1ccc(CNc2ncnc3c2[nH]c2cc(OC)c(OC)cc23)cc1 = 3.65
• CN1CCN(CCCNC(=O)Nc2ccc([N+](=O)[O-])cc2)CC1 = 1.78
